Here, each record is paired with measured pIC50 data.
Method: Inhibition of p38 kinase
pIC50: −log10 of the molar value.

Compound	pIC50
CCCCNc1cc(-c2c(-c3ccc(F)cc3)nn3c(OC)cccc23)ccn1	7.22
OCCCNc1nccc(-c2c(-c3ccc(F)cc3)nn3cc(Cl)ccc23)n1	7.40
CN(C)CCCNc1nccc(-c2c(-c3ccc(C(F)(F)F)cc3)nn3cc(C(F)(F)F)ccc23)n1	5.90
CN1CCN(CCCNc2nccc(-c3c(-c4ccc(C(F)(F)F)cc4)nn4cc(C(F)(F)F)ccc34)n2)CC1	6.40
NC(=O)c1ccc2c(-c3ccnc(NCCCO)n3)c(-c3ccc(F)cc3)nn2c1 [GW581744X]	8.00

###

Method: Inhibition of p38 kinase
pIC50: −log10 of the molar value.
# pIC50 values compiled below
Observed property: pIC50

Compound	Measured value
Nc1nccc(-c2c(-c3ccc(F)cc3)nn3cc(C(F)(F)F)ccc23)n1 [GW568326X]	6.70
Fc1ccc(-c2nn3ccccc3c2-c2ccnc(NCc3ccccc3)c2)cc1	6.80
OCCCNc1nccc(-c2c(-c3ccc(F)cc3)nn3cc(C(F)(F)F)ccc23)n1	7.22
CCCCNc1cc(-c2c(-c3ccc(F)cc3)nn3cccc(F)c23)ccn1	6.80
CSc1cccc2c(-c3ccncn3)c(-c3ccc(F)cc3)nn12	6.80
Nc1nccc(-c2c(-c3ccc(F)cc3)nn3ccccc23)n1	7.00
OCCCNc1nccc(-c2c(-c3cccc(C(F)(F)F)c3)nn3cc(C(F)(F)F)ccc23)n1	6.70
CN(C)C(=O)c1ccc2c(-c3ccnc(NC4CC4)n3)c(-c3cccc(C(F)(F)F)c3)nn2c1	7.22
Nc1cc(-c2c(-c3ccc(F)cc3)nn3cc(C(F)(F)F)ccc23)ccn1	7.00
Cc1cccc2c(-c3ccncn3)c(-c3ccc(F)cc3)nn12	6.30
Fc1ccc(-c2nn3ccccc3c2-c2ccnc(Nc3ccccc3)c2)cc1	6.80
NC(=O)c1ccc2c(-c3ccnc(NC4CC4)n3)c(-c3ccc(F)cc3)nn2c1	7.70
CCCCNc1nccc(-c2c(-c3ccc(F)cc3)nn3c(OCCF)cccc23)n1	7.40
N#Cc1ccc2c(-c3ccnc(NC4CC4)n3)c(-c3ccc(F)cc3)nn2c1 [GW561436X]	7.52
N#Cc1ccc2c(-c3ccnc(NC4CC4)c3)c(-c3ccc(F)cc3)nn2c1	7.30
COc1cccc2c(-c3ccncc3)c(-c3ccc(F)cc3)nn12	7.00

The measurements presented in this section are drawn from ChEMBL document CHEMBL1949665.
